System: Enterococcus faecalis
Test: Antibacterial activity against Enterococcus faecalis ATCC 19433 incubated for 16 to 20 hrs
Assay type: functional
Settings: time 16-20 hrs
Each entry below lists one item and its recorded MIC value.
Write down the numeric answer in µg/mL and omit the unit.

Use these answered entries as a reference point.
| Entry smiles | Tested on | Scale unit | MIC |
| --- | --- | --- | --- |
| CCCCCC/C=C\C[C@@H]1CC(=O)N[C@H](CC(C)C)C(=O)N[C@@H](CO)C(=O)N[C@@H]([C@@H](C)O)C(=O)N[C@H](Cc2ccccc2)C(=O)N[C@@H]([C@H](C)CC)C(=O)O1 | Enterococcus faecalis | µg/mL | 32 |
| CC1(C)S[C@@H]2[C@H](NC(=O)[C@H](N)c3ccccc3)C(=O)N2[C@H]1C(=O)O | Enterococcus faecalis | µg/mL | 0.5 |

# evaluate next
Can you look up the measured MIC of CCCCCCCCC[C@@H]1CC(=O)N[C@H](CC(C)C)C(=O)N[C@@H](CO)C(=O)N[C@@H]([C@@H](C)O)C(=O)N[C@H](Cc2ccccc2)C(=O)N[C@@H]([C@H](C)CC)C(=O)O1 for me? 64
